Just for reference, patent US11459339B2 is where these values come from.

testTarget: interaction between PD-1 and PD-L1 (Homo sapiens (Human), UniProt Q9NZQ7)
Sequence (Q9NZQ7 19-238): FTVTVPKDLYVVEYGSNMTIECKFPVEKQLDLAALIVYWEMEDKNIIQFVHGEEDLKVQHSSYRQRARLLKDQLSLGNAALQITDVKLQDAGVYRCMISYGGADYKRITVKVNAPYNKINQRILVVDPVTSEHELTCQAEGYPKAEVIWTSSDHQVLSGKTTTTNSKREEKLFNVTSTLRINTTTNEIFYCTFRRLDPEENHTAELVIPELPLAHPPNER
testSummary: PD1-PDL1 HTRF binding activity test (Cisbio PD-1/PD-L1 binding assay kit)
assaySetup: read-out: PD1-PDL1 HTRF Binding Activity IC50
reportedEndpoint: IC50 (nM)

compound="COC(=O)[C@@H]1CCCCN1Cc1cnc(C(=O)Nc2cccc(-c3cccc(NC(=O)c4cc(OC)c(CN5CCCC[C@H]5C(=O)OC)cn4)c3C)c2C)cc1OC [Example 64]" testtarget="interaction between PD-1 and PD-L1 (Homo sapiens (Human), UniProt Q9NZQ7)" numericvalue=10.7

I: COC(=O)[C@H]1CCCCN1Cc1cnc(C(=O)Nc2cccc(-c3cccc(NC(=O)c4cc(C)c(CN5CCCC[C@@H]5C(=O)OC)cn4)c3C)c2C)cc1C [Example 28]
II: Cc1c(NC(=O)c2cc(C3CC3)c(CNC[C@@H]3CCC(=O)N3)cn2)cccc1-c1cccc(NC(=O)c2cc(C3CC3)c(CNC[C@@H]3CCC(=O)N3)cn2)c1C [Example 137]
Input pair: I , II . Output: entry with lower IC50. Refer to your chosen item by its label in the answer. II
